- system: human GPR119 (Homo sapiens (Human), UniProt Q8TDV5)
- Sequence (Q8TDV5 whole entry): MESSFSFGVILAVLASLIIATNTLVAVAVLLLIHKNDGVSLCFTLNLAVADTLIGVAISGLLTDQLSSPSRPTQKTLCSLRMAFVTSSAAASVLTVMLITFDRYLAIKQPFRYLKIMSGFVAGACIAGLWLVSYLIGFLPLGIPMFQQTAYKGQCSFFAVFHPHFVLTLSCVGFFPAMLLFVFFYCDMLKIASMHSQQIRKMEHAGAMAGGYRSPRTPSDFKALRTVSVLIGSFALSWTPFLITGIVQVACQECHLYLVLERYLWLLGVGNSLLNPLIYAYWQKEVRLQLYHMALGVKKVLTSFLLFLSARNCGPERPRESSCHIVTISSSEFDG
- experimental protocol: AlphaScreen cAMP assay in Min-6/hGPR119 cells (GPR119 activation, intracellular cAMP)
- Type: cell-based
- condition parameters: MIN6 cells stably transfected with human GPR119; 45 minutes' incubation at RT; AlphaScreen cAMP Assay Kit
Structures can show the parent of a compound that is named as a salt.
readout label: EC50

Sample records with EC50:
# compound, readout label, result
rows = [
    ("CCC[C@@H]1C(=O)NN=C(c2ccc3nc(-c4ccc(OCCN5C[C@@H](C)O[C@@H](C)C5)cc4)oc3c2)[C@H]1C", "EC50", "46 nM"),
    ("O=C1NN=C(c2ccc3nc(-c4ccc(F)cc4)oc3c2)C2CCC12 (stereo not shown)", "EC50", "469 nM"),
    ("CCC1SC(=O)NN=C1c1ccc2nc(-c3ccccc3)oc2c1 (stereo not shown)", "EC50", "141 nM"),
    ("O=C1NN=C([C@@H]2CCc3nc(-c4ccccc4)oc3C2)[C@H]2C[C@@H]12", "EC50", "4160 nM"),
    ("CC[C@H]1C(c2ccc3nc(-c4ccccc4)oc3c2)=NNC(=O)[C@H]1C", "EC50", "8850 nM"),
]

Output EC50 of CCC1CC(=O)NN=C1c1ccc2nc(-c3ccc(OCC4CCNCC4)cc3)oc2c1 (stereo not shown) [Example 71, hydrochloride]
> 10000 nM

Output EC50 of CCC1CC(=O)NN=C1c1ccc2nc(-c3ccc(OCCN4CCN(C)CC4)cc3)oc2c1 (stereo not shown) [Example 44, dihydrochloride]
1090 nM

Output EC50 of CCC[C@H]1C(=O)NN=C(c2ccc3nc(-c4ccccc4)oc3c2)[C@H]1C (relative stereo)
6720 nM

Output EC50 of CCC1CC(=O)NN=C1c1ccc2nc(-c3ccc(OC[C@@H]4CCCN4C)cc3)oc2c1 (stereo partly shown)
296 nM

Output EC50 of CCC[C@@H]1C(=O)NN=C(c2ccc3nc(-c4ccc(OCCN(C(C)C)C(C)C)cc4)oc3c2)[C@H]1C (relative stereo)
53 nM

Output EC50 of CC1CC(=O)NN=C1c1ccc2nc(-c3cccc(OCC4CCN(C(=O)OC(C)(C)C)CC4)c3)oc2c1 (stereo not shown)
143 nM
